Every entry's value here was drawn from patent US10265307B2.

molecular target: Pim-3 (Homo sapiens (Human))
Each entry below carries its recorded IC50.

# input // IC50 lookup, key: N[C@H]1CCCN(c2c(NC(=O)c3csc(-c4c(F)cccc4F)n3)cnc3ccsc23)C1 [Example 6]
# output ≤ 100 nM

# input // IC50 lookup, key: C[C@H]1CN(c2c(NC(=O)c3nc(-c4c(F)cccc4F)c(F)cc3N)cnc3c2CCO3)C[C@@H](N)[C@@H]1O [Example 71]
# output ≤ 100 nM

###

Each entry below carries its recorded IC50.
molecular target: Pim-2 (Homo sapiens (Human), UniProt Q9P1W9); test: Pim-2 kinase assay; assay type: biochemical; conditions: 1 mM ATP; read-out: Pim2 IC50
Sequence (Q9P1W9 whole entry): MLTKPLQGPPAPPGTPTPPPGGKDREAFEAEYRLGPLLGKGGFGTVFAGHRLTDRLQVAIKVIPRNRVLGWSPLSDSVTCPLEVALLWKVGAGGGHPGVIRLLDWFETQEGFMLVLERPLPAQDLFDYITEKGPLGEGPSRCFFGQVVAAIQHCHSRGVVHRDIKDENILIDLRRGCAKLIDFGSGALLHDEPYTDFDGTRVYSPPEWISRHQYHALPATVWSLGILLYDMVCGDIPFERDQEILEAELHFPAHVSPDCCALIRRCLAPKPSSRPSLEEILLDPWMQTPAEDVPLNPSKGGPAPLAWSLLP

Solved entries:
[
  {
    "compound": "Nc1sc(-c2c(F)cccc2F)nc1C(=O)Nc1cnc2ccccc2c1N1CCC[C@H](N)C1",
    "study.target": "Pim-2 (Homo sapiens (Human), UniProt Q9P1W9)",
    "endpoint.label": "IC50",
    "test.result": "0.277 µM"
  },
  {
    "compound": "C[C@H]1CN(c2c(NC(=O)c3nc(-c4c(F)cccc4F)sc3N)cnc3c2CCO3)C[C@@H](N)[C@@H]1O",
    "study.target": "Pim-2 (Homo sapiens (Human), UniProt Q9P1W9)",
    "endpoint.label": "IC50",
    "test.result": "≤ 0.1 µM"
  },
  {
    "compound": "COC1CCc2c1ncc(NC(=O)c1nc(-c3c(F)cccc3F)sc1N)c2N1CCC[C@H](N)C1 (stereo partly shown)",
    "study.target": "Pim-2 (Homo sapiens (Human), UniProt Q9P1W9)",
    "endpoint.label": "IC50",
    "test.result": "0.1 to 1 µM"
  }
]

# input // IC50 lookup, key: C[C@H]1CN(c2c(NC(=O)c3ccc(F)c(-c4c(F)cccc4F)n3)cnc3c2CCO3)C[C@@H](N)[C@@H]1O
# output ≤ 0.1 µM

# input // IC50 lookup, key: Nc1ncc(-c2c(F)cccc2F)nc1C(=O)Nc1cnc2c(c1N1CCC[C@H](N)C1)CCC2O (single isomer, unassigned) [62 (Diastereoisomer 1)]
# output 0.1 to 1 µM

# input // IC50 lookup, key: Nc1sc(-c2c(F)cccc2F)nc1C(=O)Nc1cnc2c(c1N1C[C@@H](N)C[C@@H](C(F)(F)F)C1)CCC2O (single isomer, unassigned) [44 (Diastereoisomer 1)]
# output ≤ 0.1 µM

# input // IC50 lookup, key: Nc1sc(-c2c(F)cccc2F)nc1C(=O)Nc1cnc2c(c1N1CC[C@H](O)[C@@H](N)C1)CCC2 (single isomer, unassigned)
# output > 2 µM
